assay-protocol: Approximate solubility of BPCs in organic solvent and mixed solvent
Format: physicochemical
condition-info: n-butanol, organic solvent or mixture, thermodynamic from solid
endpoint-label: solubility

solubility reading for "Nc1ncnc2c1ncn2CCNCCCCCO" : 2200 to 2500 µg/mL

* * *

assay-protocol: Approximate solubility of BPCs in organic solvent and mixed solvent
Format: physicochemical
condition-info: methanol, organic solvent or mixture, thermodynamic from solid
endpoint-label: solubility

Record "Nc1ncnc2c1ncn2CCNCCCCCO" . Reported solubility: 50 to 66 mg/mL

* * *

assay-protocol: Approximate solubility of BPCs in organic solvent and mixed solvent
Type: physicochemical
condition-info: acetonitrile, organic solvent or mixture, thermodynamic from solid
endpoint-label: solubility

Measured solubility of Nc1ncnc2c1ncn2CCNCCCCCO [NB001] : < 2000 µg/mL
